- protocol: Henry solubility constant Hcp at 298.15 K (mol/(m3 Pa))
- conditions.used: reference: Hansen et al. (1993)
// false (0) strictly below 0.001 in Henry solubility constant Hcp; true (1) otherwise

Look over these answered cases.
- Brc1ccccc1: true (1)
- CC1CCCCC1: false (0)
- CCCCCCC: false (0)
- CCCCCCCC: false (0)
- CC(Cl)(Cl)Cl: false (0)

Attention now turns to another entry.
*Q* Record CC(C)c1ccccc1 ; criterion: Henry solubility constant Hcp no lower than 0.001. Met?
*A* false (0)

---

Would you kindly list Henry solubility constant Hcp for each of these molecules?
- protocol: Henry solubility constant Hcp at 298.15 K (mol/(m3 Pa))
- conditions.used: reference: Hansen et al. (1993)

Here are 3 molecules together with their reported answers.
- ClCC(Cl)Cl: 0.012
- C1CCCC1: 6.5e-05
- Cc1ccc(C)cc1: 0.0012

Hey, quick one: what's Henry solubility constant Hcp for each of these?
1. Cc1ccc(C)c(C)c1
2. Cc1ccc2ccccc2c1

*A*
[0.0015, "5e-05"]

Hey, quick one: what's Henry solubility constant Hcp for each of these?
1. CCCCC(C)C
2. ClC(Cl)(Cl)Cl

*A*
1: 1.9e-05; 2: 0.00033
